Reported ED50 is given for each of the following compounds.
- Test system: Pseudomonas aeruginosa
- Experiment: Compound was tested for the dose to protect 50% of mice from lethal infection against Pseudomonas aeruginosa A9843 after peroral administration to OF1-strain of female Swiss mice.
- Format: functional
- Run conditions: po, read-out: PD50
Write the value in mg/kg as a bare number.

CC(C)(C)n1cc(C(=O)O)c(=O)c2cc(F)c(N3CC[C@H](N)C3)cc21.CS(=O)(=O)O
10.2

Fill in reported ED50 for this entry: CC(C)(C)n1cc(C(=O)O)c(=O)c2cc(F)c(N3C[C@H]4C[C@@H]3CN4)nc21
4.7

Fill in reported ED50 for this entry: O=C(O)c1cn(C2CC2)c2cc(N3CCNCC3)c(F)cc2c1=O
2.6

Fill in reported ED50 for this entry: CC(C)(CF)n1cc(C(=O)O)c(=O)c2cc(F)c(N3CC4C[C@@H]3CN4)nc21.Cl
4.9

Fill in reported ED50 for this entry: CC(C)(CF)n1cc(C(=O)O)c(=O)c2cc(F)c(N3CC[C@H](N)C3)cc21.CS(=O)(=O)O
23.7

----------
- Experiment: Compound was evaluated in vivo in blood samples from the orbital sinus for its concentration after a intramuscular administration 40 mg/kg in mice
- Format: ADME, organism-based
- Design: dose 40 mg/kg, route intramuscular
- Run conditions: mouse, im
Endpoint: Cmax (ng/mL)
Write the value in ng/mL as a bare number.

CC(C)(CF)n1cc(C(=O)O)c(=O)c2cc(F)c(N3CC[C@H](N)C3)cc21.CS(=O)(=O)O
8000

Now consider the entry below.
Fill in reported Cmax for this entry: CN1CCN(c2c(F)cc3c(=O)c(C(=O)O)cn(CCF)c3c2F)CC1 [FLEROXACIN]
20000

----------
- System: Staphylococcus aureus
- Experiment: In vitro antibacterial activity against Staphylococcus aureus A 24227
- Type: functional
Reported MIC is given for each of the following molecules.
Could you write the number and then its unit?

Consider the following illustrative entries.
C[C@H]1C[C@H](N)CN1c1nc2c(cc1F)c(=O)c(C(=O)O)cn2C(CF)(CF)CF.Cl
1 µg/mL
CC(CF)(CF)n1cc(C(=O)O)c(=O)c2cc(F)c(N3CCNCC3)nc21.Cl
4 µg/mL
O=C(O)c1cn(C2CC2)c2cc(N3CCNCC3)c(F)cc2c1=O [CIPROFLOXACIN]
0.13 µg/mL
Cl.N[C@H]1CCN(c2nc3c(cc2F)c(=O)c(C(=O)O)cn3C(CF)(CF)CF)C1
8 µg/mL
Cl.O=C(O)c1cn(C(CF)(CF)CF)c2nc(N3CC4C[C@@H]3CN4)c(F)cc2c1=O
4 µg/mL

Fill in reported MIC for this entry: CC(C)(CF)n1cc(C(=O)O)c(=O)c2cc(F)c(N3CCNCC3)cc21.Cl
0.06 µg/mL

Fill in reported MIC for this entry: CC(C)(C)n1cc(C(=O)O)c(=O)c2cc(F)c(N3CC[C@H](N)C3)cc21.CS(=O)(=O)O
0.03 µg/mL

----------
- Organism: Mus musculus
- Run conditions: in vivo, po, 40 mg/kg
Endpoint: AUC (ng·h/mL)
Write the value in ng·h/mL as a bare number.

Consider the following illustrative entries.
CC(C)(CF)n1cc(C(=O)O)c(=O)c2cc(F)c(N3CC4C[C@@H]3CN4)nc21.Cl
7000
O=C(O)c1cn(C2CC2)c2cc(N3CCNCC3)c(F)cc2c1=O
7000
CC(C)(C)n1cc(C(=O)O)c(=O)c2cc(F)c(N3C[C@H]4C[C@@H]3CN4)nc21
14000

Fill in reported AUC for this entry: CN1CCN(c2c(F)cc3c(=O)c(C(=O)O)cn(CCF)c3c2F)CC1
23000

Fill in reported AUC for this entry: CC(C)(C)n1cc(C(=O)O)c(=O)c2cc(F)c(N3CC[C@H](N)C3)cc21.CS(=O)(=O)O
5000

Fill in reported AUC for this entry: CC(C)(CF)n1cc(C(=O)O)c(=O)c2cc(F)c(N3CC[C@H](N)C3)cc21.CS(=O)(=O)O
600

----------
Reported ED50 is given for each of the following molecules.
- Test system: Staphylococcus aureus
- Experiment: Compound was tested for the dose to protect 50% of mice from lethal infection against Staphylococcus aureus A 9606 after peroral administration to OF1-strain of female Swiss mice.
- Type: functional
- Run conditions: po, read-out: PD50
Write the value in mg/kg as a bare number.

Consider the following illustrative entries.
CC(C)(CF)n1cc(C(=O)O)c(=O)c2cc(F)c(N3CC[C@H](N)C3)cc21.CS(=O)(=O)O
26.4
CC(C)(C)n1cc(C(=O)O)c(=O)c2cc(F)c(N3CC[C@H](N)C3)cc21.CS(=O)(=O)O
14.4
CC(C)(C)n1cc(C(=O)O)c(=O)c2cc(F)c(N3C[C@H]4C[C@@H]3CN4)nc21
1.6
O=C(O)c1cn(C2CC2)c2cc(N3CCNCC3)c(F)cc2c1=O [CIPROFLOXACIN]
31

Now consider the entry below.
Fill in reported ED50 for this entry: CC(C)(CF)n1cc(C(=O)O)c(=O)c2cc(F)c(N3CC4C[C@@H]3CN4)nc21.Cl
25

----------
- Experiment: in vivo
- Run conditions: mouse, blood, po, 40 mg/kg
Endpoint: Cmax
Could you write the number and then its unit?

Consider the following illustrative entries.
CC(C)(CF)n1cc(C(=O)O)c(=O)c2cc(F)c(N3CC4C[C@@H]3CN4)nc21.Cl
4000 ng/mL
CC(C)(C)n1cc(C(=O)O)c(=O)c2cc(F)c(N3C[C@H]4C[C@@H]3CN4)nc21
10000 ng/mL
CN1CCN(c2c(F)cc3c(=O)c(C(=O)O)cn(CCF)c3c2F)CC1
12000 ng/mL

Fill in reported Cmax for this entry: CC(C)(CF)n1cc(C(=O)O)c(=O)c2cc(F)c(N3CC[C@H](N)C3)cc21.CS(=O)(=O)O
1000 ng/mL

----------
- Tested on: Bacteroides fragilis
- Experiment: Compound was tested in vitro for its antibacterial activity (minimum inhibitory concentration) against Bacteroides fragilis A 22862.
- Format: functional
- Run conditions: A22862
Reported log10 MIC is given for each of the following molecules.
# log10 transformed; quantity=MIC; unit=µg/mL

Consider the following illustrative entries.
C[C@H]1C[C@H](N)CN1c1nc2c(cc1F)c(=O)c(C(=O)O)cn2C(C)(C)CF.Cl
1.20
CC(CF)(CF)n1cc(C(=O)O)c(=O)c2cc(F)c(N3CC[C@H](N)C3)nc21.CS(=O)(=O)O
2.10
CC(CF)(CF)n1cc(C(=O)O)c(=O)c2cc(F)c(N3CCNCC3)nc21.Cl
2.10
CC(C)(CF)n1cc(C(=O)O)c(=O)c2cc(F)c(N3CCNCC3)cc21.Cl
0.90
Cl.O=C(O)c1cn(C(CF)(CF)CF)c2nc(N3CC4C[C@@H]3CN4)c(F)cc2c1=O
2.10
CC(CF)(CF)n1cc(C(=O)O)c(=O)c2cc(F)c(N3CC4C[C@@H]3CN4)nc21.Cl
1.51
CC(CF)(CF)n1cc(C(=O)O)c(=O)c2cc(F)c(N3CC[C@H](N)C3)cc21.CS(=O)(=O)O
0.60
CC(C)(C)n1cc(C(=O)O)c(=O)c2cc(F)c(N3CC[C@H](N)C3)cc21.CS(=O)(=O)O
0.90
CC(C)(C)n1cc(C(=O)O)c(=O)c2cc(F)c(N3CCNCC3)nc21
0.90
CC(C)(CF)n1cc(C(=O)O)c(=O)c2cc(F)c(N3CC(N)C3)cc21.Cl
0.30

Fill in reported log10 MIC for this entry: Cl.O=C(O)c1cn(C(CF)(CF)CF)c2nc(N3CCNCC3)c(F)cc2c1=O
2.10

Fill in reported log10 MIC for this entry: CC(C)(CF)n1cc(C(=O)O)c(=O)c2cc(F)c(N3CC4C[C@@H]3CN4)nc21.Cl
0.90

Fill in reported log10 MIC for this entry: CC(C)(C)n1cc(C(=O)O)c(=O)c2cc(F)c(N3C[C@H]4C[C@@H]3CN4)nc21
0.60

Fill in reported log10 MIC for this entry: C[C@H]1C[C@H](N)CN1c1nc2c(cc1F)c(=O)c(C(=O)O)cn2C(CF)(CF)CF.Cl
2.10

Fill in reported log10 MIC for this entry: CC(C)(CF)n1cc(C(=O)O)c(=O)c2cc(F)c(N3CCNCC3)nc21.Cl
1.20

Fill in reported log10 MIC for this entry: CC(C)(CF)n1cc(C(=O)O)c(=O)c2cc(F)c(N3CC[C@H](N)C3)cc21.CS(=O)(=O)O
0.30

Fill in reported log10 MIC for this entry: O=C(O)c1cn(C2CC2)c2cc(N3CCNCC3)c(F)cc2c1=O
0.60

Fill in reported log10 MIC for this entry: CN1CCN(c2c(F)cc3c(=O)c(C(=O)O)cn(CCF)c3c2F)CC1
0.00

Fill in reported log10 MIC for this entry: Cl.N[C@H]1CCN(c2nc3c(cc2F)c(=O)c(C(=O)O)cn3C(CF)(CF)CF)C1
2.10

Fill in reported log10 MIC for this entry: CS(=O)(=O)O.C[C@H]1C[C@H](N)CN1c1cc2c(cc1F)c(=O)c(C(=O)O)cn2C(C)(C)CF
0.60
